Could you please report measured growth for the items listed next?
Tested on: E. coli TESEC Mtb DapB
Assay: growth (OD600 after 10 h); higher = more growth (less inhibition)
Conditions: arabinose induction (level): Low; compound 0.1 mM; raw OD600 reference: median of DMSO wells 0.227, cell-free background 0.041
Structures can show the parent of a compound that is named as a salt.

# batch: return growth for each of the 2 compounds below
1. CO[C@@]1(NC(=O)C(C(=O)O)c2ccc(O)cc2)C(=O)N2C(C(=O)O)=C(CSc3nnnn3C)CO[C@@H]21 (some centres undefined) [Moxalactam disodium salt]
2. C[C@@H]1NC(=O)NC1=O

[0.0472, 0.245]

Please state, for each entry, its recorded growth.
1. c1ccc(C2CN3CCSC3=N2)cc1 (centres undefined) [Tetramisole hydrochloride]
2. CCN(CC)CCOC(=O)C(c1ccccc1)c1ccccc1 [Adiphenine hydrochloride]

0.252
0.223

====

System: E. coli TESEC Mtb Alr
Assay: growth (OD600 after 10 h); higher = more growth (less inhibition)
Conditions: arabinose 10000000 nM; compound 0.1 mM; raw OD600 reference: median of DMSO wells 0.146, cell-free background 0.041
Where a name gives a salt, the structure may show the parent alone.
Could you please report measured growth for the items listed next?
One number for each entry.

// worked examples, growth included
1. CC1(O)CCOC(=O)C1 (stereo not given)
0.141
2. C[C@]12CC[C@@H]3c4ccc(O)cc4CC[C@H]3[C@@H]1CCC2=O
0.129
3. Cc1cccc(C)c1NC(=O)C1CCCCN1C (stereo not given) [Mepivacaine hydrochloride]
0.136
4. Cn1c(=O)c2[nH]cnc2n(C)c1=O
0.134

Give growth for CCCCCCCN(CC)CCCC(O)c1ccc(NS(C)(=O)=O)cc1 (stereo not given) [Ibutilide fumarate]
0.137

====

System: E. coli TESEC Mtb Alr
Assay: growth (OD600 after 10 h); higher = more growth (less inhibition)
Settings: arabinose 1000000 nM; compound 0.1 mM; raw OD600 reference: median of DMSO wells 0.193, cell-free background 0.041
Structures can show the parent of a compound that is named as a salt.
For each record, write down the corresponding growth.
Answers are plain numbers.

Below, 8 molecules whose answers are already recorded.
1) CC(=O)OCC(CCn1cnc2cnc(N)nc21)COC(C)=O
0.21
2) O=C(O)CCCC[C@@H]1SC[C@@H]2NC(=O)N[C@@H]21
0.206
3) Cc1cn[nH]c1 [Fomepizole]
0.178
4) Nc1ccc(/N=N/c2ccccc2)c(N)n1 [Phenazopyridine hydrochloride]
0.184
5) Clc1ccc2c(c1)CCc1cccnc1C2=C1CCNCC1
0.153
6) CN1CCc2cccc3c2[C@H]1Cc1ccc(O)c(O)c1-3 [R(-) Apomorphine hydrochloride hemihydrate]
0.0652
7) CN(Cc1cc(Br)cc(Br)c1N)C1CCCCC1 [Bromhexine hydrochloride]
0.0423
8) Nc1nc(O)c2ncn(CCC(CO)CO)c2n1
0.18

Report growth for every entry below.
1. Cc1cc(C2CCCCC2)n(O)c(=O)c1
2. CC(C)NCC(O)COc1ccc(CCOCC2CC2)cc1 (stereo not given) [Betaxolol hydrochloride]

1: 0.0399; 2: 0.179

====

System: E. coli TESEC Mtb Alr
Assay: growth (OD600 after 10 h); higher = more growth (less inhibition)
Conditions: arabinose 10000000 nM; compound 0.1 mM; raw OD600 reference: median of DMSO wells 0.146, cell-free background 0.041
Structures can show the parent of a compound that is named as a salt.
outcome_measure: growth
Numbers only.

Examples with answers:
1) NC[C@@H]1O[C@H](O[C@H]2[C@@H](O)[C@H](O[C@@H]3[C@@H](O)[C@H](N)C[C@H](N)[C@H]3O[C@H]3O[C@H](CO)[C@@H](O)[C@H](O)[C@H]3N)O[C@@H]2CO)[C@H](N)[C@@H](O)[C@@H]1O [Paromomycin sulfate]
0.163
2) NCCNCCNCCNCCN [Tetraethylenepentamine pentahydrochloride]
0.136
3) Cn1cnc([N+](=O)[O-])c1Sc1ncnc2[nH]cnc12
0.0849
4) Cn1c(NCCN(CCO)CCCc2ccc([N+](=O)[O-])cc2)cc(=O)n(C)c1=O
0.145
5) CN1C(=O)OC(C)(C)C1=O
0.138

Please give growth for each item listed below.
1. CCCCCCC[N+](CC)(CC)CCCCc1ccc(Cl)cc1 [Clofilium tosylate]
2. CN1CCOC(c2ccccc2)c2ccccc2C1 (centres undefined) [Nefopam hydrochloride]

[0.0398, 0.157]

Value sought for every listed molecule: growth.
1. O=S(=O)(O)CCS
2. Cn1c(=O)c2c(ncn2CC2OCCO2)n(C)c1=O
3. CS(=O)(=O)Nc1ccc([N+](=O)[O-])cc1Oc1ccccc1 [Nimesulide]
4. CO/N=C(\C(=O)N[C@@H]1C(=O)N2C(C(=O)O)=C(COC(N)=O)CS[C@H]12)c1ccco1 [Cefuroxime sodium salt]

1. 0.13
2. 0.158
3. 0.139
4. 0.115

Lab note: each molecule below needs its growth filled in.
1. Nc1ccc(C(=O)NCC(=O)O)cc1
2. CC(=O)OCC(=O)[C@@]12OC3(CCCC3)O[C@@H]1C[C@H]1[C@@H]3CCC4=CC(=O)C=C[C@]4(C)[C@@]3(F)[C@@H](O)C[C@@]12C [Amcinonide]
3. O=C(O)c1cccnc1Nc1cccc(C(F)(F)F)c1
4. CC(CCc1ccccc1)NCC(O)c1ccc(O)c(C(N)=O)c1 (centres undefined) [Labetalol hydrochloride]

0.138
0.172
0.099
0.137

Need growth for each of these molecules.
1. CC(=O)[C@@]12O[C@](C)(c3ccccc3)O[C@@H]1C[C@H]1[C@@H]3CCC4=CC(=O)CC[C@]4(C)[C@H]3CC[C@@]12C [Algestone acetophenide]
2. Cc1ccccc1N1C(=O)c2cc(S(N)(=O)=O)c(Cl)cc2NC1C (centres undefined)
3. CCC1=C(C)CN(C(=O)NCCc2ccc(S(=O)(=O)NC(=O)N[C@H]3CC[C@H](C)CC3)cc2)C1=O [Glimepiride]
4. OC(CCN1CCCCC1)(c1ccccc1)C1CC2C=CC1C2 (centres undefined) [Biperiden hydrochloride]
5. CSc1nc2cc(Cl)c(Oc3cccc(Cl)c3Cl)cc2[nH]1
6. CC1CC(OC(=O)c2ccccc2O)CC(C)(C)C1 (centres undefined) [Homosalate]

0.211
0.138
0.155
0.154
0.0487
0.15

The origin of these recorded values is the supplement of paper PMC9262897.
